Target: T1, human MT1-MMP hemopexin domain (human, UniProt P50281 319-511)
T1 construct: range 319-511; Secreted from HEK293 cells as soluble N-terminally His6-tagged protein; also called MT1-MMP hemopexin-like repeats; MMP14
Experiment: FP competition, tracer A-(17-69-07)-A-Sar6-K(Fluorescein)
Numbered stars: 1 amine (or outer) side, 2 acyl side, 3 side chain; on linkers, the order of the positions; unused ones are H or OH. Bridge positions count the residues as written; N and C are the ends. Ends that are not written are not given here. TBMB = c1c(C[*:1])cc(C[*:3])cc1C[*:2]
Readout: Kd (nM)

(P) ACVNEFGCEDFYDICA (linker 2-8-15 via TBMB; not fully specified (C-terminus), also called A-(17-69-03)-A) [17-69-03-N001]
(Q) ACFGEFGCEDFYDICA (linker 2-8-15 via TBMB; not fully specified (C-terminus), also called A-(17-69-02)-A) [17-69-02-N001]
Task: Hello, I am sorting some records. Could you say if P or Q has the smaller Kd value? Write down the label of the entry you select.
Output: P
